# System: HeLa
# experimentNotes: Cytotoxicity against human HeLa cells assessed as cell viability after 24 hrs by MTT assay
# Format: functional, cell-based
reportedMetric: pIC50
One number for each entry, as −log10 of the molar value.

Give pIC50 for each listed item.
1. H-HGGRLLRLLRRLLRLLR-NH2
2. H-HGGKLLKLLKKLLKLLK-NH2
3. H-HGGKLLKLLKLKKLLKL-NH2

Reply:
[5.43, 5.48, 4.46]
